B1: Tryptophan synthase alpha chain, P0A877 (parent)
chain: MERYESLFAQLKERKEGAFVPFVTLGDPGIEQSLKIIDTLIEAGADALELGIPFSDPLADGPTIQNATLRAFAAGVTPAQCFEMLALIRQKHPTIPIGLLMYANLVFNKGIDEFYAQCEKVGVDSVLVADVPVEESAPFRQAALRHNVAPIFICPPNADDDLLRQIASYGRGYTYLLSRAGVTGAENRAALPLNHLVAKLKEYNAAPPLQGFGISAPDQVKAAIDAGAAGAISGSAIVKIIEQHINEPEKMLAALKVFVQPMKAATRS

variants of: B1; conditions: Escherichia coli (strain K12); pH 7; 25 °C; GdnHCl; CD; Potassium phosphate 10 mM; reversible: yes; structure 1WQ5; whole UniProt chain shown

Variant id: P132G
ddG of mutation (higher = less stable), kcal/mol: 0.6
//
Variant id: P28A
ddG of mutation (higher = less stable), kcal/mol: 2.5
//
Variant id: P207A
ddG of mutation (higher = less stable), kcal/mol: 1.8
//
Variant id: P28G
ddG of mutation (higher = less stable), kcal/mol: 1.6
